These data points were gathered from PubChem BioAssay AID504452.

Biological target: Peroxisome proliferator-activated receptor gamma (Homo sapiens)
Assay: partial agonism at human PPARgamma receptor – cell-based, luciferase reporter, luminescence, primary screen (AID 504452);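 also: Cos-1 cells carrying PPARgamma and a response element luciferase reporter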
Settings: cell-based PPARg luciferase reporter, at 5 µM, active compounds read high
Is activation (% of partial agonist control) at least 70%? Then label 1. If not, label 0.

Q: Quick check: does Cc1ccc2nc(N3C(=O)C(O)=C(C(=O)c4ccco4)C3c3ccc(C)o3)sc2c1 (stereo not given) have activation (% of partial agonist control) greater than or equal to 70%?
Result: label 1

Q: Quick check: does O=C(COc1coc(CN2CCc3ccccc3C2)cc1=O)Nc1ccc(F)cc1F have activation (% of partial agonist control) greater than or equal to 70%?
Result: label 1

Q: Quick check: does CN(CCNC(=O)C1CCCN(c2ncnc3c2nc2n3CCCCC2)C1)Cc1ccccc1 (stereo not given) have activation (% of partial agonist control) greater than or equal to 70%?
Result: label 1

Q: Quick check: does O=C(CN(c1ccc(F)cc1)S(=O)(=O)c1ccccc1)NC1CC2CCC1C2 (stereo not given) have activation (% of partial agonist control) greater than or equal to 70%?
Result: label 0

Q: Quick check: does COC(=O)C1=CN(Cc2ccc(F)cc2)C=C(C(=O)OC)C1c1ccc(O)c(OC)c1 have activation (% of partial agonist control) greater than or equal to 70%?
Result: label 0

Q: Quick check: does COC(=O)c1sc(N2C(=O)C(O)=C(C(=O)c3ccc(C)o3)C2c2ccc(F)cc2)nc1C (stereo not given) have activation (% of partial agonist control) greater than or equal to 70%?
Result: label 0

Q: Quick check: does Cc1ccc(C)c(S(=O)(=O)NCC(c2ccco2)N2CCc3ccccc3C2)c1 (stereo not given) have activation (% of partial agonist control) greater than or equal to 70%?
Result: label 0

Q: Quick check: does COc1ccccc1N1C(=O)C2C(c3ccccc3F)NN(C(=O)c3ccc(C)cc3)C2C1=O (stereo not given) have activation (% of partial agonist control) greater than or equal to 70%?
Result: label 0

Q: Quick check: does Cc1cc(C)c2nc(N3C(=O)C(O)=C(C(=O)c4ccco4)C3c3ccco3)sc2c1 (stereo not given) have activation (% of partial agonist control) greater than or equal to 70%?
Result: label 1

Q: Quick check: does COc1ccc(N2C(=O)C(=O)/C(=C(/O)c3ccc(C)cc3)C2c2cccnc2)cc1 (stereo not given) have activation (% of partial agonist control) greater than or equal to 70%?
Result: label 0

Q: Quick check: does O=C(C1=C(O)C(=O)N(CCN2CCOCC2)C1c1ccc(Cl)cc1)c1cc2ccccc2o1 (stereo not given) have activation (% of partial agonist control) greater than or equal to 70%?
Result: label 1

Q: Quick check: does CCOc1cccc(/C(O)=C2/C(=O)C(=O)N(Cc3ccco3)C2c2ccncc2)c1 (stereo not given) have activation (% of partial agonist control) greater than or equal to 70%?
Result: label 1

Q: Quick check: does CCOc1cccc(/C(O)=C2/C(=O)C(=O)N(CCN3CCOCC3)C2c2ccncc2)c1 (stereo not given) have activation (% of partial agonist control) greater than or equal to 70%?
Result: label 1

Q: Quick check: does CSCc1c(C(=O)Nc2ccc(N3CCOCC3)cc2)oc2ccccc12 have activation (% of partial agonist control) greater than or equal to 70%?
Result: label 1

Q: Quick check: does O=C(C1=C(O)C(=O)N(c2nc3ccc(Cl)cc3s2)C1c1ccco1)c1ccco1 (stereo not given) have activation (% of partial agonist control) greater than or equal to 70%?
Result: label 1

Q: Quick check: does CCn1cnc2c1c(=O)n(Cc1cccc([N+](=O)[O-])c1)c(=O)n2Cc1ccccc1 have activation (% of partial agonist control) greater than or equal to 70%?
Result: label 1

Q: Quick check: does O=C(CNC(=O)c1nc[nH]c1C(=O)N1CCc2ccccc2C1)OCc1ccccc1 have activation (% of partial agonist control) greater than or equal to 70%?
Result: label 1

Q: Quick check: does O=C(c1nc2ccccn2c1CN1CCCC(O)C1)N1CCN(C2CCCCC2)CC1 (stereo not given) have activation (% of partial agonist control) greater than or equal to 70%?
Result: label 1
